Listed sequences paired with reported recombinant UMI read abundance (log10)
assay: recombinant UMI read abundance after kanamycin selection (control-corrected) (log10(CPM+1)); higher = more efficient recombination; extreme values may be limits of the assay; sequences stand for … in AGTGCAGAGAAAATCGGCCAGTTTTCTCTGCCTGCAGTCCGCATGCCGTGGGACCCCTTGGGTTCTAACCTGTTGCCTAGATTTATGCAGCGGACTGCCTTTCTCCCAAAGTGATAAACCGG…AGGTTGGTTTCACT; site = the 11-nt donor

| biosequence | recombinant UMI read abundance (log10) |
| --- | --- |
| CTGCATGCATGGACCGGTTTTCCCGGTAATCCGTATTTGGT (site CTGCATGCTAC) | 1.57 |
| GCGACTGCATGGACCGGTTTTCCCGGTAATCCGTATTTGCC (site GCGACTGCTGG) | 1.65 |
| AACGGCCCATGGACCGGTTTTCCCGGTAATCCGTATTTGTT (site CACGGCCCTAA) | 0.071 |
| TGGATTCCATGGACCGGTTTTCCCGGTAATCCGTATTTGAT (site TGGATTCCTAT) | 0 |
| TAGGTTGCATGGACCGGTTTTCCCGGTAATCCGTATTTGGC (site TAGGTTGCTGC) | 2.62 |
| AATTATGCATGGACCGGTTTTCCCGGTAATCCGTATTTGCA (site AATTATGCTTC) | 0.00784 |
| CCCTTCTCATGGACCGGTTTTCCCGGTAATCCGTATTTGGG (site CCCTTCTCTCC) | 0.0281 |
| CAAGTTACATGGACCGGTTTTCCCGGTAATCCGTATTTGGG (site CAAGTGACTCC) | 0.0286 |
| AGTAAGGCATGGACCGGTTTTCCCGGTAATCCGTATTTGAT (site AGTAAGGCTAT) | 2.27 |
| AGGTTCCCATGGACCGGTTTTCCCGGTAATCCGTATTTGTC (site AGGTTCCCTGA) | 0 |
| ACACATCCATGGACCGGTTTTCCCGGTAATCCGTATTTGAT (site ACACATCCTAT) | 1.34 |
| CCGCCCGCATGGACCGGTTTTCCCGGTAATCCGTATTTGTA (site CCGCCCGCTTA) | 1.02 |
| AGTTACGCATGGACCGGTTTTCCCGGTAATCCGTATTTGAT (site AGTTACGCTAT) | 1.72 |
| CAATTCCCATGGACCGGTTTTCCCGGTAATCCGTATTTGCC (site CAATTCCCTTG) | 0 |
| TCGAATCCATGGACCGGTTTTCCCGGTAATCCGTATTTGAG (site TCGAATCCTCT) | 0.516 |
| CTTCTCACATGGACCGGTTTTCCCGGTAATCCGTATTTGTA (site CTTCTCCCTTA) | 0.00809 |
| GGCCACCCATGGACCGGTTTTCCCGGTAATCCGTATTTGAT (site GGCCACCCTAA) | 0.0182 |
| AAGAAGACATGGACCGGTTTTCCCGGTAATCCGTATTTGCA (site ACGAAGACTTG) | 1.66 |

###

experiment: recombinant UMI read abundance after kanamycin selection (control-corrected) (log10(CPM+1)); higher = more efficient recombination; extreme values may be limits of the assay; sequences stand for … in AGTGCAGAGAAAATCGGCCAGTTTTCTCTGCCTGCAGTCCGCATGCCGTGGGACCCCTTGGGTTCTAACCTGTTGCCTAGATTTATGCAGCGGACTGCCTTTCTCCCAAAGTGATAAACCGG…AGGTTGGTTTCACT; site = the 11-nt donor
# thresholds on recombinant UMI read abundance (log10) define classes: label 0 = under 0.003, label 1 = from 0.003 up to 0.02, label 2 = 0.02 and over

| biosequence | group |
| --- | --- |
| AAAGTCACATGGACCGGTTTTCCCGGTAATCCGTATTTGGG (site GAAGTCACTCC) | label 1 |
| AAATGGCCATGGACCGGTTTTCCCGGTAATCCGTATTTGCA (site AAATGGCCTTG) | label 1 |
| CGGCAACCATGGACCGGTTTTCCCGGTAATCCGTATTTGAT (site CGGAAACCTAT) | label 0 |
| CGAACATCATGGACCGGTTTTCCCGGTAATCCGTATTTGCT (site CGGACATCTAG) | label 2 |
| AAATGATCATGGACCGGTTTTCCCGGTAATCCGTATTTGAG (site AAATGATCTCT) | label 2 |
| TCGAATACATGGACCGGTTTTCCCGGTAATCCGTATTTGCA (site TGGAATACTTG) | label 2 |
| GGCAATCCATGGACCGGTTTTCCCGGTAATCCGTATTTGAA (site GGCAATTCTTT) | label 0 |
| CTCCCGACATGGACCGGTTTTCCCGGTAATCCGTATTTGAG (site CTCCCCACTCT) | label 1 |
| AGCATTTCATGGACCGGTTTTCCCGGTAATCCGTATTTGAC (site AGCCTTTCTGT) | label 0 |
| ATCCTTTCATGGACCGGTTTTCCCGGTAATCCGTATTTGAC (site AACCTTTCTGT) | label 0 |
| ACCGTCTCATGGACCGGTTTTCCCGGTAATCCGTATTTGCA (site ACCGTCTCTTG) | label 2 |
| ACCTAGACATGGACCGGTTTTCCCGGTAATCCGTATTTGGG (site ACCAAGACTCC) | label 1 |
| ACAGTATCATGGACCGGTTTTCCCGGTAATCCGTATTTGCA (site CCAGTATCTGG) | label 2 |

###

experiment: recombinant barcode read abundance after kanamycin selection (control-corrected) (log10(CPM+1)); higher = more efficient recombination; sequences stand for … in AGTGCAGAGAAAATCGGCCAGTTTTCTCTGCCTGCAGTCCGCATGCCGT…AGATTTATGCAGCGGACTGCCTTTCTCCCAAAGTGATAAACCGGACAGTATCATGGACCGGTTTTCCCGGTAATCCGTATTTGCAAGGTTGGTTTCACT; site = the 11-nt target
Give Fulfilled when the value for recombinant barcode read abundance (log10) is at least 0.1. Give Not fulfilled when it is less.

| biosequence | group |
| --- | --- |
| GTACGTCCTTGGGTTCTAACCTGTTGCCT (site GTACGTCCTAT) | Not fulfilled |
| ATACAATCTTGGGTTCTAACCTGTTGCCT (site ATACAATCTAG) | Fulfilled |
| CATGACCCTTGGGTTCTAACCTGTTGCCT (site CAGGACCCTAG) | Fulfilled |
| AGGAGCCCTTGGGTTCTAACCTGTTGCTC (site AGGAGCCCTAA) | Fulfilled |
| GACGTGTCTTGGGTTCTAACCTGTTGCCG (site GGCGTGTCTCC) | Not fulfilled |
| ATGGTCACTTGGGTTCTAACCTGTTGCCT (site AAGGTCACTAG) | Fulfilled |
| ACAGTGGCTTGGGTTCTAACCTGTTGCGG (site ACAGTGGCTCC) | Fulfilled |
| GAGTGTCCTTGGGTTCTAACCTGTTGCGA (site GAGTGTCCTTC) | Fulfilled |
| GAAGTACCTTGGGTTCTAACCTGTTGCCT (site CAAGTACCTAG) | Fulfilled |
| CATCCGGCTTGGGTTCTAACCTGTTGCCT (site CATCCGCCTAG) | Not fulfilled |
| TGTGAGTCTTGGGTTCTAACCTGTTGCCT (site TGTGAGTCTAG) | Fulfilled |
| GCCTATGCTTGGGTTCTAACCTGTTGCCT (site GGCTATGCTAG) | Not fulfilled |

###

assay: recombinant UMI read abundance after kanamycin selection (control-corrected) (log10(CPM+1)); higher = more efficient recombination; extreme values may be limits of the assay; sequences stand for … in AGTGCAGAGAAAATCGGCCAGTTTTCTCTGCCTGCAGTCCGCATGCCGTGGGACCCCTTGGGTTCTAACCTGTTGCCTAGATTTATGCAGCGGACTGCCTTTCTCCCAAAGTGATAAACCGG…AGGTTGGTTTCACT; site = the 11-nt donor

| biosequence | recombinant UMI read abundance (log10) |
| --- | --- |
| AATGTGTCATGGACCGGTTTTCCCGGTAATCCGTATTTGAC (site AATGTGGCTGT) | 0 |
| TACTTTACATGGACCGGTTTTCCCGGTAATCCGTATTTGCT (site TACTTAACTAG) | 0 |
| CCCCATACATGGACCGGTTTTCCCGGTAATCCGTATTTGTA (site CCCCAGACTTA) | 0 |
| ATGGAAACATGGACCGGTTTTCCCGGTAATCCGTATTTGCA (site TTGGAAACTTG) | 0.684 |
| CGGACTCCATGGACCGGTTTTCCCGGTAATCCGTATTTGTG (site CGGACTCCTCA) | 0.0192 |
| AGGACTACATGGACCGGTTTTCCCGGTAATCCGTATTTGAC (site AGGACTCCTGT) | 0 |
| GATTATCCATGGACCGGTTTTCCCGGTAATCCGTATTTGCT (site CATTATCCTAG) | 0.436 |
| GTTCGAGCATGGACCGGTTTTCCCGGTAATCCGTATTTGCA (site GTTCAAGCTTG) | 1.8 |
| ACCTAGCCATGGACCGGTTTTCCCGGTAATCCGTATTTGCC (site GCCTAGCCTGG) | 0 |
| ACCCGTCCATGGACCGGTTTTCCCGGTAATCCGTATTTGAT (site AGCCGTCCTAT) | 0.0209 |
| TAGAGCGCATGGACCGGTTTTCCCGGTAATCCGTATTTGTG (site TAGAGCGCTCA) | 1.05 |
| CACGACCCATGGACCGGTTTTCCCGGTAATCCGTATTTGTT (site CACGACCCTAA) | 0.631 |
| GACAGACCATGGACCGGTTTTCCCGGTAATCCGTATTTGGT (site GACACACCTAC) | 0.00419 |
| GTGTATGCATGGACCGGTTTTCCCGGTAATCCGTATTTGGT (site GTGAATGCTAC) | 0.483 |
| AGATTATCATGGACCGGTTTTCCCGGTAATCCGTATTTGGA (site AGATTATCTTC) | 1.9 |
| GAGTACGCATGGACCGGTTTTCCCGGTAATCCGTATTTGAT (site GAGTACGCTAT) | 1.99 |
| TACAATTCATGGACCGGTTTTCCCGGTAATCCGTATTTGCC (site TGCAATTCTGG) | 0.434 |
| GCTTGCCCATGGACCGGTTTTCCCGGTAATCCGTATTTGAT (site GCTTGACCTAT) | 0.0101 |
| TGCCACGCATGGACCGGTTTTCCCGGTAATCCGTATTTGTC (site TGCCACGCTGA) | 2.07 |
| ACTTGAACATGGACCGGTTTTCCCGGTAATCCGTATTTGAG (site ACTTGAACTCT) | 0.998 |
